- Tested on: SK-MEL-5
- protocol: Cytotoxicity against human SK-MEL-5 cells after 4 hrs by MTT assay
- Format: functional, cell-based
- assayConditions: SK-MEL-5, 4 h
pIC50: −log10 of the molar value.
metricName: pIC50

• NCCNC(=O)C(CN)(Cc1ccc2ccccc2c1)Cc1ccc2ccccc2c1 = 5.55

====

- System: MRC5
- protocol: Cytotoxicity against human MRC5 cells after 4 hrs by MTT assay
- Type: cell-based
- assayConditions: MRC5, 4 h
# true (1) = EC50 below 60 µM (exclusive); false (0) = EC50 at/above 60 µM

• N=C(N)NCCC[C@H](NC(=O)C(CN)(Cc1ccc(C(F)(F)F)cc1)Cc1ccc(C(F)(F)F)cc1)C(N)=O = false (0)
• CN(C)CCNC(=O)C(CN)(Cc1ccc(C(F)(F)F)cc1)Cc1ccc(C(F)(F)F)cc1 = true (1)
• N=C(N)NCCC[C@H](NC(=O)C(CN)(Cc1ccc2ccccc2c1)Cc1ccc2ccccc2c1)C(N)=O = false (0)
• CN(C)CCNC(=O)C(CN)(Cc1ccc2ccccc2c1)Cc1ccc2ccccc2c1 = true (1)
• N=C(N)NCCCNC(=O)C(CNC(=N)N)(Cc1ccc2ccccc2c1)Cc1ccc2ccccc2c1 = false (0)
• CN1CCN(C(=O)C(CN)(Cc2ccc(C(C)(C)C)cc2)Cc2ccc(C(C)(C)C)cc2)CC1 = true (1)
• NCCNC(=O)C(CN)(Cc1ccc2ccccc2c1)Cc1ccc2ccccc2c1 = true (1)
• CC(C)(C)c1ccc(CC(CNC(=N)N)(Cc2ccc(C(C)(C)C)cc2)C(=O)NCCCNC(=N)N)cc1 = false (0)
• CN(C)CCNC(=O)C(CN)(Cc1ccc(C(C)(C)C)cc1)Cc1ccc(C(C)(C)C)cc1 = true (1)

These measurements were taken from ChEMBL document CHEMBL2150936.
